Every entry's value here was drawn from patent US20250026813A1.

Study system: full-length stabilised spike trimer protein of SARS-CoV-2 virus (in-house, soluble ECD with trimeris (SARS-CoV-2, UniProt P0DTC2 14-1208; P10104 458-484)
Property: HTRF deltaF; scope: individual binders
Number plus unit, in that order.

Below, each entry is followed by its recorded HTRF deltaF result.
IMPI-067 (antibody, V domains shown) VH: QVQLVESGGGVVQPGTSLRLSCAASGFTFNSFGMHWVRQAPGKGLEWVAVISYDGSSKYYADSVKGRFTISRDNSKNTLYLQMNSLRAEDTAVYYCAKDEGDYDDYYYGMDVWGQGTTVTVSS VL: EIVLTQSPGSLSLSPGERATLSCRASQSLSSRYLAWYHQKPGQAPRLLIYGASSRATGIPDRFSGSGSGTDFTLTISGLEPEDFAVYYCQQYGNSITFGGGTKVEIK    963 deltaF
IMPI-006 (antibody, V domains shown) VH: QLQLQESGPGLVKPSETLSLTCTVSGGSISNSNYYWGWIRQPPGKGLEWIGSIYYSGRTYYNPSLKSRVTISVDTSKNQFSLKLSSVTAADTAVYYCARMGLLWFGEFYGMDVWGQGTTVTVSS VL: DIQMTQSPSSLSASVGDRVTITCRASQGISSWLAWYQQKPEKAPKSLIYDASSLQRGVPSRFSGSGSGTDFTLTISSLQPEDFASYYCQQYNSYPLTFGGGTRVEIK    1060 deltaF
IMPI-047 (antibody, V domains shown) VH: EVQLVESGGGLIQPGGSLRLSCAASGFTVSSNYMNWVRQAPGKGLEWVSVIYSGGSTYYADSVKGRFTISRDNSKNTLYLQMNSLRTEDTAVYYCARDLVAYGMDVWGQGTTVTVSS VL: DIQLTQSPSFLSASVGDRVTITCWASQGISSYLAWYQQKPGKAPKVLIYAASTLQSGVPSRFSGSGSGTEFTLTISSLQPEDFATYYCQLLNSNPLTFGGGTKVEIK    1410 deltaF
IMPI-033 (antibody, V domains shown) VH: QVQLQESGPGLVKPSQTLSLTCTVSGGSISSYGYYWSWIRQHPGKGLEWIGYIYYSGSTYYNPSLKSRVTMSVDTSKNQLSLRLNSVSAADTAVYYCARDFGGNSNYFDYWGQGTLVTVSS VL: AIQLTQSPSSLSASVGDRVTITCRASQGISSALAWYQQKPGKAPNLLIYDASSLESGVPSRFSGSGSGTDFTLTISSLQPEDFATYYCQQFNSSPLTFGGGTKVEIK    884 deltaF

Please look at the following binder next.
Task: Value lookup for HTRF deltaF; key = IMPI-028 (antibody, V domains shown) VH: EVQLVESGGGLIQPGGSLRLSCAASGFTVSSNYMSWVRQAPGKGLEWVSVIYSGGSTYYADSVKGRFTISRDNSKNTLYLQMNSLRAEDTAVYYCARDYGDLYFDYWGQGTLVTVSS VL: EIVLTQSPGTLSLSPGERATLSCRASQSISSYLAWYQQKPGQAPRLLIYGASSRATGIPDKFSGSGSGTDFTLTISRLEPEDFAVYYCQQYGSSPRTFGQGTKVEIK
Result: 480 deltaF
